TARGET UNDER TEST: PLK4 (Homo sapiens, UniProt O00444)
TEST DESCRIPTION: PLK4 NanoBRET target engagement assay
RUN PARAMETERS: HEK293 T cells transfected with PLK4 NanoLuc fusion vector; K-5 tracer; 2 hrs incubation
pIC50: −log10 of the molar value.
ENDPOINT NAME: pIC50

As a guide, the following entries are already answered.
>>> result("Cc1cc(Nc2nc(N(C)c3c(F)cc(S(C)(=O)=O)cc3F)nc(-c3cn(C4CC(O)C4)nc3C)c2C2CC2)n[nH]1 (centres unmarked) [Compound 365]")
8.40
>>> result("Cc1cc(Nc2nc(N(C)c3c(F)cc(S(C)(=O)=O)cc3F)nc(-c3cnn(CF)c3)c2C2CC2)n[nH]1 [Compound 127]")
8.22
>>> result("Cc1cc(Nc2nc(N(C)c3c(F)cc(S(C)(=O)=O)cc3F)nc(-c3cnn([C@H]4CC[C@H](O)CC4)c3)c2C2CC2)n[nH]1 [Compound 193]")
8.52
>>> result("Cc1cc(Nc2nc(N(C)c3c(F)cc(S(C)(=O)=O)cc3F)nc(-c3cn(C)c(C#N)n3)c2C2CC2)n[nH]1 [Compound 204]")
8.10

[A] COc1c(Nc2cc(C)[nH]n2)nc(Sc2ccc(S(C)(=O)=O)cc2F)c(C#N)c1-c1cnn(C)c1 [Compound 101]
[B] COc1c(Nc2cc(C)[nH]n2)nc(Nc2ccc(S(C)(=O)=O)cc2F)c(C)c1-c1cnn(C)c1 [Compound 23]
Incoming: Look at A and B . Which one has the lower recorded pIC50 number? Kindly give the label for the entry you pick.
Outgoing: B

----------
TARGET UNDER TEST: PLK4 (Homo sapiens, UniProt O00444)
TEST DESCRIPTION: PLK4 NanoBRET target engagement assay
RUN PARAMETERS: HEK293 T cells transfected with PLK4 NanoLuc fusion vector; K-5 tracer; 2 hrs incubation
ENDPOINT NAME: IC50 (µM)

>>> result("Cc1cc(Nc2nc(N(C)c3ccc(S(C)(=O)=O)cc3F)nc(-c3cnn(C4CN(S(C)(=O)=O)C4)c3)c2C2CC2)n[nH]1")
0.028

[P] Cc1cc(Nc2nc(N(C)c3c(F)cc(S(C)(=O)=O)cc3F)nc(-c3cn(CCS(C)(=O)=O)nc3C)c2C2CC2)n[nH]1
[Q] Cc1cc(Nc2nc(N(C)c3cc(F)c(S(C)(=O)=O)cc3F)nc(-c3cn(C)c(C)n3)c2C2CC2)n[nH]1
Incoming: Endpoint returns whichever of P and Q has the numerically higher IC50. Field: selected label. Fill in the label of the entry you choose.
Outgoing: Q

----------
TARGET UNDER TEST: PLK4 (Homo sapiens)
TEST DESCRIPTION: PLK4 NanoBRET target engagement assay
RUN PARAMETERS: HEK293 T cells transfected with PLK4 NanoLuc fusion vector; K-5 tracer; 2 hrs incubation
pIC50: −log10 of the molar value.
ENDPOINT NAME: pIC50

>>> result("CN(c1nc(Nc2cc(C#N)[nH]n2)c(C2CC2)c(-c2cnn(C)c2)n1)c1c(F)cc(S(C)(=O)=O)cc1F")
7.12

[P] Cc1cc(Nc2nc(N(C)c3c(F)cc(S(C)(=O)=O)cc3F)cc(-c3cnn(C)c3)c2C2CC2)n[nH]1
[Q] Cc1cc(Nc2nc(N(C)c3c(F)cc(S(C)(=O)=O)cc3F)nc(-c3ccn(C)c(=O)c3)c2C2CC2)n[nH]1
[R] Cc1cc(Nc2nc(N(C)c3c(F)cc(S(C)(=O)=O)cc3F)nc(-c3cnn(CC#N)c3)c2C2CC2)n[nH]1
Incoming: Returns the items ordered by pIC50, from maximum to minimum. State the ranking by listing the labels in the requested order.
Outgoing: R, Q, P
(R: 8.40, Q: 7.66, P: 7.28)

----------
TARGET UNDER TEST: PLK4 (Homo sapiens, UniProt O00444)
Sequence (O00444 1-970): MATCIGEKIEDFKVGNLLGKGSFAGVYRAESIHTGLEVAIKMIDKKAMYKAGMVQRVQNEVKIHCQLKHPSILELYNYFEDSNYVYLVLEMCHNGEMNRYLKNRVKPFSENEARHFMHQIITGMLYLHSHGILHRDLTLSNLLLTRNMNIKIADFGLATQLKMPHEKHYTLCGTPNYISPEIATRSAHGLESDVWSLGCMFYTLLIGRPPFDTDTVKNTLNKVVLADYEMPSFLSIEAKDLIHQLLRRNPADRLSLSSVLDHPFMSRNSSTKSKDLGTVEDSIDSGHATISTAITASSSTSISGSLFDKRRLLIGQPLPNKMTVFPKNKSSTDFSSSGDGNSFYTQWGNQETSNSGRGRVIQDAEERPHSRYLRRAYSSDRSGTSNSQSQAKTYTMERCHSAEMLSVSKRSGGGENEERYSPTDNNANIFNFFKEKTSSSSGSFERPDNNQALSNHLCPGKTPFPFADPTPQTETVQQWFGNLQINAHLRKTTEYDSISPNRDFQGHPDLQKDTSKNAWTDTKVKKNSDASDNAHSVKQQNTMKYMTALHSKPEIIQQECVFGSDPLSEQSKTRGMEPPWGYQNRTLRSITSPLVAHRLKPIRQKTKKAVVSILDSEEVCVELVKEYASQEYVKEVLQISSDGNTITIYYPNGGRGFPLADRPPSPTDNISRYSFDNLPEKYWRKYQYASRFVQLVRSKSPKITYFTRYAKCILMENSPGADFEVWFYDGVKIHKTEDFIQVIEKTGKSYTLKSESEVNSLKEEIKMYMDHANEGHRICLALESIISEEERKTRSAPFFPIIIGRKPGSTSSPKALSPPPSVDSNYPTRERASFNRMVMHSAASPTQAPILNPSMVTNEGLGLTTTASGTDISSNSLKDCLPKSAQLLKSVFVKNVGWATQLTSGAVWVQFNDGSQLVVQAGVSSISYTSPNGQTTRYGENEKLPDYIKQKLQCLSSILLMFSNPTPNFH
TEST DESCRIPTION: PLK4 NanoBRET target engagement assay
RUN PARAMETERS: HEK293 T cells transfected with PLK4 NanoLuc fusion vector; K-5 tracer; 2 hrs incubation
ENDPOINT NAME: IC50 (nM)

>>> result("Cc1cc(Nc2nc(N(C)c3c(F)cc(S(C)(=O)=O)cc3F)nc(-c3cnc4n3CCC4)c2C2CC2)n[nH]1")
13
>>> result("Cc1cc(Nc2nc(N(C)c3c(F)cc(S(C)(=O)=O)cc3F)nc(-c3cn(C4CC4)c(C)n3)c2C2CC2)n[nH]1")
4
>>> result("Cc1cc(Nc2nc(N(C)c3c(F)cc(S(C)(=O)=O)cc3F)nc(-c3ncn(C)c3C)c2C2CC2)n[nH]1")
45
>>> result("Cc1cc(Nc2nc(N(C)c3c(F)cc(S(C)(=O)=O)cc3F)nc(-c3cnn(C(F)F)c3)c2C2CC2)n[nH]1")
9
>>> result("Cc1cc(Nc2nc(N(C)c3c(F)cc(S(C)(=O)=O)cc3F)nc(N3CCn4nccc4C3)c2C2CC2)n[nH]1")
21

[a] Cc1cc(Nc2nc(N(C)c3c(F)cc(S(C)(=O)=O)cc3F)nc(-c3cnn(C)c3C(=O)O)c2C2CC2)n[nH]1
[b] CC#Cc1cc(Nc2nc(N(C)c3c(F)cc(S(C)(=O)=O)cc3F)nc(-c3cnn(C)c3)c2C2CC2)n[nH]1
Incoming: Lower value for measured IC50? Options: a , b Return value: the label identifying the chosen record.
Outgoing: b
(b: 33 nM, a: 660 nM)

----------
TARGET UNDER TEST: UniProt O00444
Sequence (O00444 1-970): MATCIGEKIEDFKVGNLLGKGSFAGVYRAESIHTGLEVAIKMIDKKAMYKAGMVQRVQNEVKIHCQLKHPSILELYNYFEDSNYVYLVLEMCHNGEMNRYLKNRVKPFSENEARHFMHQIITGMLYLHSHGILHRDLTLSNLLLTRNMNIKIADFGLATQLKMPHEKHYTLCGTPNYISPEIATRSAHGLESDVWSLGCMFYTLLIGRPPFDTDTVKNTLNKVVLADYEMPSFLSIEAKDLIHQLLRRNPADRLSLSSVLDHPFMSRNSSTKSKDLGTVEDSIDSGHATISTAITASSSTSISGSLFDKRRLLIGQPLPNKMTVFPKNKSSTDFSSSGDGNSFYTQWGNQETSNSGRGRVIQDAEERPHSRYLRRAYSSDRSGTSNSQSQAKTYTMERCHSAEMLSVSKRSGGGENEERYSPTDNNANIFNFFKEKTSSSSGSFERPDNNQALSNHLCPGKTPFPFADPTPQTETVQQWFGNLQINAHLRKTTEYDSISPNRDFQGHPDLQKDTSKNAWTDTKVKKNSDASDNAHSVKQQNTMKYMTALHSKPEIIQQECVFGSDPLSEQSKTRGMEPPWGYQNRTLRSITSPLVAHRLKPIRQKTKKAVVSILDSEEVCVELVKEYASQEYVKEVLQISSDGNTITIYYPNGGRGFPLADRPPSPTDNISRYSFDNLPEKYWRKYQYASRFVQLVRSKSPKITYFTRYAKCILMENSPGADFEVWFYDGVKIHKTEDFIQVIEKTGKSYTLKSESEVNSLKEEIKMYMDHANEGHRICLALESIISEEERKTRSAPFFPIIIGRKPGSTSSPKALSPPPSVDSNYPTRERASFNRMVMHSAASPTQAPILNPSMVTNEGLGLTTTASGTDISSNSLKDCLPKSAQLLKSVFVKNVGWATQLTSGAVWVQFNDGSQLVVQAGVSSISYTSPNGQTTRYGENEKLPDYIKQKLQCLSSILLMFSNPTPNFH
TEST DESCRIPTION: PLK4 NanoBRET target engagement assay
RUN PARAMETERS: HEK293 T cells transfected with PLK4 NanoLuc fusion vector; K-5 tracer; 2 hrs incubation
Protocol: To determine the affinity of Compounds described herein in the PLK4 NanoBRET target engagement assay, HEK293 T cells (ATCC Product Number CRL-3216) are first transfected with the PLK4 NanoLuc fusion vector DNA and Transfection carrier DNA using the Fugene HD Transfection reagent in Opti-MEM No Phenol Red buffer. […] The plate is then transferred in the Envision plate reader where the Acceptor emission (610 nm) and the Donor emission (450 nm) are measured. […]
pIC50: −log10 of the molar value.
ENDPOINT NAME: pIC50

Some molecules with known pIC50 results, for comparison:
>>> result("Cc1cc(Nc2nc(N(C)c3c(F)cc(S(C)(=O)=O)cc3F)nc(-c3cnn(C)c3N3CCCC3=O)c2C2CC2)n[nH]1")
8.10
>>> result("Cc1cc(Nc2nc(N(C)c3c(F)cc(S(C)(=O)=O)cc3F)nc(-c3cn(C)nc3C3CC3)c2C2CC2)n[nH]1")
8.40
>>> result("Cc1cc(Nc2nc(N(C)c3cc(F)c(S(C)(=O)=O)cc3F)nc(-c3ccn(C(F)F)n3)c2C2CC2)n[nH]1")
7.20
>>> result("COc1c(Nc2cc(C)[nH]n2)nc(N(C)c2ccc(S(=O)(=O)C(C)C)cc2)nc1-c1cnn(C)c1")
6.80
>>> result("Cc1cc(Nc2nc(Nc3ccc(S(C)(=O)=O)cc3F)nc(-c3cn(C)cn3)c2C2CC2)n[nH]1")
6.70
>>> result("Cc1cc(Nc2nc(N(C)c3cc(F)c(S(C)(=O)=O)cc3F)nc(-c3cc4n(n3)CCOC4)c2C2CC2)n[nH]1")
7.80
>>> result("CN(c1nc(Nc2cc(C3CC3)[nH]n2)c(C2CC2)c(-c2cnn(CC(C)(C)O)c2)n1)c1c(F)cc(S(C)(=O)=O)cc1F")
7.85
>>> result("Cc1cc(Nc2nc(N(C)c3c(F)cc(S(C)(=O)=O)cc3F)nc(-c3cn(C4CCOCC4)nc3C)c2C2CC2)n[nH]1")
7.68
>>> result("Cc1cc(Nc2nc(N(C)c3c(F)cc(S(C)(=O)=O)cc3F)nc(-c3cn4c(n3)CNCC4)c2C2CC2)n[nH]1")
7.40
>>> result("COCCn1cc(-c2nc(N(C)c3cc(F)c(S(C)(=O)=O)cc3F)nc(Nc3cc(C)[nH]n3)c2C2CC2)c(C)n1")
7.92

[P] Cc1cc(Nc2nc(N(C)c3ccc(S(C)(=O)=O)cc3F)nc(-n3cncn3)c2C2CC2)n[nH]1
[Q] COc1c(Nc2cc(C)[nH]n2)nc(N(C)c2ccc(CN3CCOC3=O)cc2)nc1-c1cnn(C)c1
Incoming: Which value of pIC50 is numerically greater: that of P or that of Q ? API: response body contains the label of the selected item.
Outgoing: Q
(Q: 6.96, P: 6.13)

[P] CC(=O)c1c(-c2nc(N(C)c3c(F)cc(S(C)(=O)=O)cc3F)nc(Nc3cc(C)[nH]n3)c2C2CC2)cnn1C
[Q] COCc1nc(-c2nc(N(C)c3c(F)cc(S(C)(=O)=O)cc3F)nc(Nc3cc(C4CC4)[nH]n3)c2C2CC2)cn1C
Incoming: Quick check, higher pIC50 between P and Q ? The response must carry the label of the picked entry.
Outgoing: Q
(Q: 8.52, P: 7.72)

[a] Cc1cc(Nc2nc(N(C)c3c(F)cc(S(C)(=O)=O)cc3F)nc(-c3cnn4c3CCC4)c2C2CC2)n[nH]1
[b] Cc1cc(Nc2nc(N(C)c3c(F)cc(S(C)(=O)=O)cc3F)nc(N3CC(n4ccnc4)C3)c2C2CC2)n[nH]1
[c] Cc1cc(Nc2nc(N(C)c3ccc(S(C)(=O)=O)cc3F)nc(-c3ncc(C)s3)c2C2CC2)n[nH]1
Incoming: Put the items in order so that reported pIC50 rises from first to last. Note for the reader: the ranking is given by listing the labels in the order requested.
Outgoing: c, b, a
(c: 6.62, b: 7.06, a: 8.40)

Origin of the recorded values: patent US20250177396A1
